System: HL-60(TB) leukemia
assay_protocol: NCI-60 one-dose screen, 48 h (100 = growth as untreated, 0 = no growth, -100 = all killed)
applied_conditions: 10 µM unless noted
Experimental: Growth inhibition of the HL-60(TB) human tumor cell line is measured as a screen for anti-cancer activity. Cells are grown in 96 well plates and exposed to the test compound for 48 hours. Compounds are tested at a single concentration, which is 10^-5 M for most compounds. The reported endpoint is percent growth (GI% or GIPRCNT), where numbers from 0 - 100% represent growth inhibition, and numbers from -100% - 0 represent cell death. For example, a value of 40 represents 60% growth inhibition. […]
The panel holds about 83,000 compounds, 20% with a hit somewhere; the sample as a whole holds those more often.
Catalogue of compounds with associated growth
property_measured: growth (%)

chemical_structure=N#Cc1ccc(Oc2ccc3ccc(=O)oc3c2)cc1 assayed_target="HL-60(TB) leukemia" property_measured=growth reported_measurement=82.7
chemical_structure=NC(N)=N/N=C\c1ccc(OCc2ccccc2)cc1 assayed_target="HL-60(TB) leukemia" property_measured=growth reported_measurement=43.1
chemical_structure=CCOC(=O)c1c2c(cn1Cc1ccccc1)-c1oncc1CC2 assayed_target="HL-60(TB) leukemia" property_measured=growth reported_measurement=98.6
chemical_structure=COc1cc2c(/C=C3\C(=O)Nc4ccc(Br)cc43)c(Cl)n(C)c2cc1C assayed_target="HL-60(TB) leukemia" property_measured=growth reported_measurement=-13.1
chemical_structure=O=C(c1ccccc1)C1(Br)CCCCC1 assayed_target="HL-60(TB) leukemia" property_measured=growth reported_measurement=106
chemical_structure=COc1ccc(-n2c(=O)c3ccccc3n(Cc3ccc(C(=O)NO)cc3)c2=O)cc1 assayed_target="HL-60(TB) leukemia" property_measured=growth reported_measurement=-4.17

----------
Tested on: DU-145 prostate
assay_protocol: NCI-60 one-dose screen, 48 h (100 = growth as untreated, 0 = no growth, -100 = all killed)
applied_conditions: 10 µM unless noted
Compounds without any hit were thinned out: in the full panel of roughly 83,000, 20% have a hit.
property_measured: growth (%)

compound=CC(=O)Nc1ccc(C=C2C(=O)NC(=O)NC2=O)cc1 property_measured=growth reported_measurement=124
compound="Cc1ccc(N)cc1[As]=[As]c1cc(N)ccc1C (stereo unspecified)" property_measured=growth reported_measurement=-40.6
compound=CC1(C)CC(=O)CC(C)(C)N1N=O property_measured=growth reported_measurement=107
compound="CC(=O)O[C@H]1C[C@H](O[C@H]2[C@@H](O)C[C@H](O[C@H]3[C@@H](O)C[C@H](O[C@H]4CC[C@@]5(C)C(CCC6C5C[C@@H](O)[C@]5(C)[C@@H](C7=CC(=O)OC7)CC[C@]65O)C4)O[C@@H]3C)O[C@@H]2C)O[C@H](C)[C@H]1O[C@@H]1O[C@H](CO)[C@@H](O)[C@H](O)[C@H]1O (stereo partly specified)" property_measured=growth reported_measurement=-100
compound=COC(=O)C(=[N+]=[N-])C(=O)OC property_measured=growth reported_measurement=112
compound=CC1(C)N=C(N)N=C(N)N1c1ccc(OCCCCNC(=O)Nc2cccc(S(=O)(=O)F)c2)c(Cl)c1 property_measured=growth reported_measurement=37.1
compound="CC(=O)O[C@H]1CCC2(C)C(=CCC3C2CCC2(C)/C(=N/OC(=O)c4ccc(N(CCCl)CCCl)cc4)CCC32)C1 (stereo partly specified)" property_measured=growth reported_measurement=78.7
compound=CC[C@@H](C)/C=C(C)/C=C/C(=O)c1c(O)c(-c2ccc(O)cc2)cn(O)c1=O property_measured=growth reported_measurement=15.5
compound="CC(CC(C#N)(c1ccccc1)c1ccccc1)N1CCOCC1 (stereo unspecified)" property_measured=growth reported_measurement=105
compound="CC1COC(=O)C1 (stereo unspecified)" property_measured=growth reported_measurement=104
compound=N#CC(C#N)=Cc1ccc2ccccc2c1 property_measured=growth reported_measurement=109
